- Tested on: 855422-203-R-J1-PDC complex spheroid viability;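 note: drug exposure lasted 7 days starting on day 3 after seeding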
- Assay details: Anticancer human tumor 855422-203-R-J1-PDC patient-derived bladder carcinoma cell line growth inhibition
- Test context: curve of first compound; second compound 10 µM
Kindly supply the reported IC50 values for the records listed here.

What value of IC50 has been recorded for this entry: Cn1ncnc1C1c2n[nH]c(=O)c3cc(F)cc(c23)NC1c1ccc(F)cc1 (centres undefined) + NC1CCC(NC2CC2c2ccccc2)CC1
> 0.1 µM

What about Cn1ncnc1C1c2n[nH]c(=O)c3cc(F)cc(c23)NC1c1ccc(F)cc1 (centres undefined) + NC1CC1c1ccc(-c2cccc(O)c2)cc1 ?
> 0.1 µM

What about CC(C)c1c(-c2ccccc2)nc2c(C#N)c[nH]n2c1=O + NC1CCC(NC2CC2c2ccccc2)CC1 ?
> 10 µM

What about Nc1ncn(C2CC(O)C(CO)O2)c(=O)n1 (centres undefined) + NC1CC1c1ccc(-c2cccc(O)c2)cc1 ?
> 1 µM
